- assayName: Unbound volume of distribution at steady state in Sprague-Dawley rat at 1 mg/kg, iv measured upto 24 hrs
- Type: ADME, organism-based
- conditionContext: in vivo
We begin with a simple list: items and their reported fVdss.
reportedEndpoint: fVdss (L/kg)

| compoundSmiles | reportedEndpoint | unitsText | reportedMeasurement |
| --- | --- | --- | --- |
| CNC(=O)c1n[nH]c2c(F)c(-c3c(F)ccc(NS(=O)(=O)c4cc(Cl)cnc4OC)c3F)ccc12 | fVdss | L/kg | 56 |
| CNC(=O)c1ncn2cc(-c3c(F)ccc(NS(=O)(=O)c4cc(Cl)cnc4OC)c3F)ncc12 | fVdss | L/kg | 130 |
| CNC(=O)c1ncn2c1CC[C@H](c1c(F)ccc(NS(=O)(=O)c3cc(F)cnc3OC)c1F)C2 | fVdss | L/kg | 15 |
| CNC(=O)c1ncn2cc(-c3c(F)ccc(NS(=O)(=O)c4cc(Cl)cnc4OC)c3F)ccc12 | fVdss | L/kg | 320 |
| COc1ncc(Cl)cc1S(=O)(=O)Nc1ccc(F)c(-c2ccc3c(-c4ncc[nH]4)ncn3c2)c1F | fVdss | L/kg | 93 |
| COc1ncc(Cl)cc1S(=O)(=O)Nc1ccc(F)c(-c2ccc3c(-c4ncc[nH]4)n[nH]c3c2F)c1F | fVdss | L/kg | 180 |
